# % of Total Rat values compiled below
# Test protocol: Metabolism identification (MetID) assay in rat hepatocytes
# Assay setup: 10 μM bromolysergide, 3 hours, 37 degrees Celsius
Express the result in % but write the number alone.

Recorded results for 2 molecules are shown here.
CCN(CC)C(=O)[C@@H]1C=C2c3cccc4[nH]c(Br)c(c34)C[C@H]2N(C)C1 [Compound 2BL, 2-bromo-lysergic acid diethylamide]; 18.5
CCNC(=O)[C@@H]1C=C2c3cccc4[nH]c(Br)c(c34)C[C@H]2NC1 [Compound M359]; 0.7

Please examine the following record next.
Any idea what % of Total Rat was measured for CCN(CC)C(=O)[C@@H]1C=C2c3cccc4[nH]c(Br)c(c34)C[C@H]2NC1 [Compound M387] ?
2.5

====

# Test protocol: Pharmacokinetics of 2-bromo-LSD prodrugs in non-human primates
# Assay setup: male, cynomolgus monkey, plasma, iv
Property measured: Cmax (ng/mL)
Express the result in ng/mL but write the number alone.

Any idea what Cmax was measured for CCN(CC)C(=O)[C@@H]1C=C2c3cccc4[nH]c(Br)c(c34)C[C@H]2N(C)C1 [Compound 2BL, 2-bromo-lysergic acid diethylamide] ?
280

====

# % of Total Human values compiled below
# Test protocol: Metabolism identification (MetID) assay in human hepatocytes
# Assay setup: 10 μM bromolysergide, 3 hours, 37 degrees Celsius
Express the result in % but write the number alone.

CN1C[C@H](C(N)=O)C=C2c3cccc4[nH]c(Br)c(c34)C[C@H]21 [Compound M345]; 0.4
CCN(CC)C(=O)[C@@H]1C=C2c3cccc4[nH]c(Br)c(c34)C[C@H]2N(C)C1 [Compound 2BL, 2-bromo-lysergic acid diethylamide]; 41.3

Please examine the following record next.
Any idea what % of Total Human was measured for CCN(CC)C(=O)[C@@H]1C=C2c3cccc4[nH]c(Br)c(c34)C[C@H]2NC1 [Compound M387] ?
3.0

====

# % of Total Rat values compiled below
# Test protocol: Metabolism identification (MetID) assay in rat hepatocytes
# Assay setup: 10 μM bromolysergide, 3 hours, 37 degrees Celsius
Please report the result as a number followed by the unit.

CN1C[C@H](C(=O)O)C=C2c3cccc4[nH]c(Br)c(c34)C[C@H]21 [Compound M346]; 0.5%
CCNC(=O)[C@@H]1C=C2c3cccc4[nH]c(Br)c(c34)C[C@H]2N(C)C1 [Compound M373]; 7.7%
CCN(CC)C(=O)[C@@H]1C=C2c3cccc4[nH]c(O)c(c34)C[C@H]2N(C)C1 [Compound M339]; 3.9%

Please examine the following record next.
Any idea what % of Total Rat was measured for CN1C[C@H](C(N)=O)C=C2c3cccc4[nH]c(Br)c(c34)C[C@H]21 [Compound M345] ?
0.1%

====

# Test protocol: Metabolism identification (MetID) assay in human hepatocytes
# Assay setup: 10 μM bromolysergide, 3 hours, 37 degrees Celsius
# % of Total Human values compiled below
Please report the result as a number followed by the unit.

CCNC(=O)[C@@H]1C=C2c3cccc4[nH]c(Br)c(c34)C[C@H]2NC1; 1.0%
CCNC(=O)[C@@H]1C=C2c3cccc4[nH]c(Br)c(c34)C[C@H]2N(C)C1; 10.3%
CN1C[C@H](C(=O)O)C=C2c3cccc4[nH]c(Br)c(c34)C[C@H]21; 14.3%

Please examine the following record next.
Any idea what % of Total Human was measured for CCN(CC)C(=O)[C@@H]1C=C2c3cccc4[nH]c(O)c(c34)C[C@H]2N(C)C1 ?
4.8%

====

# Test protocol: Pharmacokinetics of 2-bromo-LSD prodrugs in rats
# Assay setup: male, Sprague-Dawley, rat, plasma, iv
Property measured: Cmax (nM)
Express the result in nM but write the number alone.

Any idea what Cmax was measured for CCN(CC)C(=O)[C@@H]1C=C2c3cccc4[nH]c(Br)c(c34)C[C@H]2N(C)C1 [Compound 2BL, 2-bromo-lysergic acid diethylamide] ?
890

====

# % of Total Human_LM values compiled below
# Test protocol: Metabolism identification (MetID) assay in human liver microsomes S9 fraction
# Assay setup: 10 μM bromolysergide, human liver microsomes S9 1 mg/mL, NADPH, one hour, 37° C.
Express the result in % but write the number alone.

CN1C[C@H](C(=O)O)C=C2c3cccc4[nH]c(Br)c(c34)C[C@H]21; 0.9
CCN(CC)C(=O)[C@@H]1C=C2c3cccc4[nH]c(Br)c(c34)C[C@H]2N(C)C1 [Compound 2BL, 2-bromo-lysergic acid diethylamide]; 30.0
CN1C[C@H](C(N)=O)C=C2c3cccc4[nH]c(Br)c(c34)C[C@H]21; 0.2

Any idea what % of Total Human_LM was measured for CCN(CC)C(=O)[C@@H]1C=C2c3cccc4[nH]c(O)c(c34)C[C@H]2N(C)C1 ?
4.4

And CCNC(=O)[C@@H]1C=C2c3cccc4[nH]c(Br)c(c34)C[C@H]2NC1 ?
1.2

And CCNC(=O)[C@@H]1C=C2c3cccc4[nH]c(Br)c(c34)C[C@H]2N(C)C1 ?
19.6

And CCN(CC)C(=O)[C@@H]1C=C2c3cccc4[nH]c(Br)c(c34)C[C@H]2NC1 ?
3.0
